test system: U87MG pLVX-IDH2 R140Q-neo cells; test: U87MG pLVX-IDH2 R140Q-neo cell based assay, 2-HG in media by LC-MS at 48 hours; conditions: Homo sapiens, U-87 MG
pIC50: −log10 of the molar value.
Recorded pIC50 values for a group of compounds are listed next.
measurementKind: pIC50

INSERT INTO measurements (compound, measurementkind, measurement) VALUES
  ('CC(C)Nc1nc(Nc2ccncc2)nc(-c2cccc(N)c2)n1', 'pIC50', '6.00 to 7.00'),
  ('CC(C)Nc1nc(Nc2ccnc(C#N)c2)nc(-c2ccccc2F)n1', 'pIC50', '> 7.00'),
  ('COCc1cccc(Nc2nc(NC(C)C)nc(-c3ccccc3)n2)c1', 'pIC50', '> 7.00'),
  ('CC(C)Nc1nc(Nc2ccccc2)nc(-c2ccccc2C#N)n1', 'pIC50', '6.00 to 7.00'),
  ('CNc1cccc(-c2nc(Nc3cc(F)cc(F)c3)nc(NC(C)C)n2)n1', 'pIC50', '> 7.00'),
  ('COc1cccc(-c2nc(Nc3ccnc(C(F)(F)F)c3)nc(NC3COC3)n2)c1F', 'pIC50', '> 7.00'),
  ('CC(O)C(C)Nc1nc(Nc2ccnc(C(F)(F)F)c2)nc(-c2cccc(C(F)(F)F)n2)n1 (stereo not shown)', 'pIC50', '> 7.00'),
  ('CC(C)Nc1nc(Nc2ccccc2)nc(-c2cccc(N)n2)n1', 'pIC50', '> 7.00'),
  ('Cn1cc(Nc2nc(Nc3ccnc(C(F)(F)F)c3)nc(-c3cccc(C(F)(F)F)n3)n2)cn1', 'pIC50', '> 7.00'),
  ('CC(C)(O)CNc1nc(Nc2ccnc(C(F)(F)F)c2)nc(-c2cccc(C(C)(F)F)n2)n1', 'pIC50', '> 7.00');
